Values were extracted from the supplement of paper PMC9112550.

- Test system: Escherichia coli TOP10
- test_method_notes: shrunken log2 fold change of peptide-encoding DNA abundance (4.5 h post-induction vs induction); higher = less antimicrobial activity (less host growth inhibition)
- study_conditions: time post-induction: 4.5 h; library: site-saturation at positions 5, 18, 19, 20
Give shrunken log2 fold change for every item shown.

RRIRIRPPRLPRPRPRPIYSPRP ... -0.946

I have 5 sequences here; please give me shrunken log2 fold change for each one.
1. RRIRIRPPRLPRPRPRPEAIPRP
2. RRIRTRPPRLPRPRPRPAFVPRP
3. RRIRQRPPRLPRPRPRPQCTPRP
4. RRIRKRPPRLPRPRPRPTRCPRP
5. RRIRVRPPRLPRPRPRPDKIPRP

1. -0.0271
2. -0.163
3. -0.0165
4. 0.876
5. -0.19

I have 4 sequences here; please give me shrunken log2 fold change for each one.
1. RRIRHRPPRLPRPRPRPLLCPRP
2. RRIRWRPPRLPRPRPRPHCKPRP
3. RRIRGRPPRLPRPRPRPLCVPRP
4. RRIRMRPPRLPRPRPRPYCEPRP

[-0.223, -0.233, 0.689, -0.34]

I have 5 sequences here; please give me shrunken log2 fold change for each one.
1. RRIRTRPPRLPRPRPRPLQWPRP
2. RRIRQRPPRLPRPRPRPLFGPRP
3. RRIRVRPPRLPRPRPRPIYSPRP
4. RRIRIRPPRLPRPRPRPVTNPRP
5. RRIRMRPPRLPRPRPRPSGDPRP

1: 0.206; 2: 0.107; 3: -0.203; 4: -0.208; 5: 0.839

====

- System: Escherichia coli TOP10
- test_method_notes: shrunken log2 fold change of peptide-encoding DNA abundance (4.5 h post-induction vs induction); higher = less antimicrobial activity (less host growth inhibition)
- study_conditions: time post-induction: 4.5 h; library: site-saturation at positions 5, 18, 19, 20
shrunken log2 fold change vs -0.04: at or above is Criterion met, below is Criterion not met.

RRIRGRPPRLPRPRPRPSYSPRP ... Criterion met
RRIRPRPPRLPRPRPRPGSLPRP ... Criterion met
RRIRFRPPRLPRPRPRPWHHPRP ... Criterion not met
RRIRNRPPRLPRPRPRPSNNPRP ... Criterion not met

Textbook exercise: given the entry `RRIRIRPPRLPRPRPRPDLGPRP` , state whether its shrunken log2 fold change is greater than or equal to -0.04.
Criterion met

Textbook exercise: given the entry `RRIRMRPPRLPRPRPRPLNQPRP` , state whether its shrunken log2 fold change is greater than or equal to -0.04.
Criterion not met

Textbook exercise: given the entry `RRIRSRPPRLPRPRPRPGSVPRP` , state whether its shrunken log2 fold change is greater than or equal to -0.04.
Criterion met

Textbook exercise: given the entry `RRIRMRPPRLPRPRPRPFSKPRP` , state whether its shrunken log2 fold change is greater than or equal to -0.04.
Criterion not met

Textbook exercise: given the entry `RRIRVRPPRLPRPRPRPIIMPRP` , state whether its shrunken log2 fold change is greater than or equal to -0.04.
Criterion met

Textbook exercise: given the entry `RRIRTRPPRLPRPRPRPRMWPRP` , state whether its shrunken log2 fold change is greater than or equal to -0.04.
Criterion met

Textbook exercise: given the entry `RRIRRRPPRLPRPRPRPPQMPRP` , state whether its shrunken log2 fold change is greater than or equal to -0.04.
Criterion met

Textbook exercise: given the entry `RRIRQRPPRLPRPRPRPVMSPRP` , state whether its shrunken log2 fold change is greater than or equal to -0.04.
Criterion not met

Textbook exercise: given the entry `RRIRDRPPRLPRPRPRPGGLPRP` , state whether its shrunken log2 fold change is greater than or equal to -0.04.
Criterion met

Textbook exercise: given the entry `RRIRHRPPRLPRPRPRPWLFPRP` , state whether its shrunken log2 fold change is greater than or equal to -0.04.
Criterion not met

Textbook exercise: given the entry `RRIRPRPPRLPRPRPRPRGGPRP` , state whether its shrunken log2 fold change is greater than or equal to -0.04.
Criterion met

Textbook exercise: given the entry `RRIRKRPPRLPRPRPRPWMMPRP` , state whether its shrunken log2 fold change is greater than or equal to -0.04.
Criterion met

Textbook exercise: given the entry `RRIRGRPPRLPRPRPRPHAYPRP` , state whether its shrunken log2 fold change is greater than or equal to -0.04.
Criterion met

Textbook exercise: given the entry `RRIRVRPPRLPRPRPRPRNKPRP` , state whether its shrunken log2 fold change is greater than or equal to -0.04.
Criterion not met

Textbook exercise: given the entry `RRIRLRPPRLPRPRPRPENVPRP` , state whether its shrunken log2 fold change is greater than or equal to -0.04.
Criterion not met

====

- Test system: Escherichia coli TOP10
- test_method_notes: shrunken log2 fold change of peptide-encoding DNA abundance (4.5 h post-induction vs induction); higher = less antimicrobial activity (less host growth inhibition)
- study_conditions: time post-induction: 4.5 h; library: site-saturation at positions 5, 18, 19, 20
measured_quantity: shrunken log2 fold change
Numbers only.

Please review the entries below; each comes with its answer.
RRIRHRPPRLPRPRPRPNKPPRP ... -0.0637
RRIRERPPRLPRPRPRPLKQPRP ... -0.121
RRIRYRPPRLPRPRPRPQTPPRP ... -0.203

I have 3 sequences here; please give me shrunken log2 fold change for each one.
1. RRIRARPPRLPRPRPRPYEHPRP
2. RRIRERPPRLPRPRPRPPGKPRP
3. RRIRQRPPRLPRPRPRPLHHPRP

[-0.25, 0.28, -0.73]

====

Give shrunken log2 fold change for every item shown.
- Tested on: Escherichia coli TOP10
- test_method_notes: shrunken log2 fold change of peptide-encoding DNA abundance (4.5 h post-induction vs induction); higher = less antimicrobial activity (less host growth inhibition)
- study_conditions: time post-induction: 4.5 h; library: site-saturation at positions 5, 18, 19, 20
Numbers only.

I have 4 sequences here; please give me shrunken log2 fold change for each one.
1. RRIRCRPPRLPRPRPRPGMFPRP
2. RRIRNRPPRLPRPRPRPPDPPRP
3. RRIRARPPRLPRPRPRPSQTPRP
4. RRIRHRPPRLPRPRPRPQRWPRP

1. -0.462
2. 0.497
3. 0.416
4. 0.00359

I have 4 sequences here; please give me shrunken log2 fold change for each one.
1. RRIRCRPPRLPRPRPRPRNDPRP
2. RRIRARPPRLPRPRPRPIIQPRP
3. RRIRMRPPRLPRPRPRPDCMPRP
4. RRIRIRPPRLPRPRPRPMKVPRP

[-0.191, -0.206, 2.24, -0.00968]

I have 7 sequences here; please give me shrunken log2 fold change for each one.
1. RRIRMRPPRLPRPRPRPKHDPRP
2. RRIRWRPPRLPRPRPRPNPKPRP
3. RRIRIRPPRLPRPRPRPSRRPRP
4. RRIRYRPPRLPRPRPRPSKTPRP
5. RRIRVRPPRLPRPRPRPYDEPRP
6. RRIRQRPPRLPRPRPRPGCIPRP
7. RRIRTRPPRLPRPRPRPTVGPRP

1. 0.43
2. 0.0369
3. 0.35
4. -0.0513
5. -0.0163
6. -0.306
7. 0.155

I have 5 sequences here; please give me shrunken log2 fold change for each one.
1. RRIRWRPPRLPRPRPRPSVMPRP
2. RRIRIRPPRLPRPRPRPIWLPRP
3. RRIRRRPPRLPRPRPRPDVPPRP
4. RRIRLRPPRLPRPRPRPASMPRP
5. RRIRDRPPRLPRPRPRPISNPRP

[-0.333, -0.11, 0.0826, -0.357, -0.175]

I have 2 sequences here; please give me shrunken log2 fold change for each one.
1. RRIRDRPPRLPRPRPRPICDPRP
2. RRIRQRPPRLPRPRPRPISCPRP

0.137
-0.00146

I have 5 sequences here; please give me shrunken log2 fold change for each one.
1. RRIRERPPRLPRPRPRPLDSPRP
2. RRIRHRPPRLPRPRPRPCFPPRP
3. RRIRVRPPRLPRPRPRPHQPPRP
4. RRIRHRPPRLPRPRPRPWLEPRP
5. RRIRIRPPRLPRPRPRPRPDPRP

[-0.344, -0.517, 0.0593, -0.0848, 0.0926]

I have 5 sequences here; please give me shrunken log2 fold change for each one.
1. RRIRLRPPRLPRPRPRPPCIPRP
2. RRIRPRPPRLPRPRPRPCWYPRP
3. RRIRHRPPRLPRPRPRPATGPRP
4. RRIRNRPPRLPRPRPRPKWQPRP
5. RRIRYRPPRLPRPRPRPPCVPRP

1: -0.519; 2: -0.408; 3: -0.276; 4: 0.182; 5: 0.0199

====

- System: Escherichia coli TOP10;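 further: peptides expressed intracellularly from a pBAD plasmid library in pooled LB shake-flask culture, induced with 0.3% L-arabinose, DNA abundance read by NGS, three biological replicates, DESeq2 with apeglm shrinkage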
- test_method_notes: shrunken log2 fold change of peptide-encoding DNA abundance (4.5 h post-induction vs induction); higher = less antimicrobial activity (less host growth inhibition)
- study_conditions: time post-induction: 4.5 h; library: site-saturation at positions 5, 18, 19, 20
measured_quantity: shrunken log2 fold change
Numbers only.

RRIRLRPPRLPRPRPRPLLTPRP ... 0.0657
RRIRNRPPRLPRPRPRPHYNPRP ... -0.619
RRIRSRPPRLPRPRPRPLKEPRP ... 0.176
RRIRKRPPRLPRPRPRPYVRPRP ... 0.00408
RRIRQRPPRLPRPRPRPNKMPRP ... -0.0321
RRIRFRPPRLPRPRPRPKCIPRP ... -0.338
RRIRHRPPRLPRPRPRPEWVPRP ... -0.086
RRIRSRPPRLPRPRPRPFDNPRP ... 0.0211

I have 7 sequences here; please give me shrunken log2 fold change for each one.
1. RRIRRRPPRLPRPRPRPIYIPRP
2. RRIRSRPPRLPRPRPRPPGYPRP
3. RRIRNRPPRLPRPRPRPTHWPRP
4. RRIRIRPPRLPRPRPRPIKAPRP
5. RRIRYRPPRLPRPRPRPSCGPRP
6. RRIRVRPPRLPRPRPRPDMYPRP
7. RRIRCRPPRLPRPRPRPTQYPRP

-0.184
0.0642
0.661
-0.38
-0.184
-0.0946
-0.0607
